In this section, each of the compounds is paired with its reported pKd.
- SUBJECT OF TEST: GDP-bound KRAS wild-type protein (Homo sapiens)
- PROTOCOL NOTES: Binding to KRAS by surface plasmon resonance (SPR), Single Cycle Kinetics
- TEST SETTINGS: SPR, Single Cycle Kinetics, GDP-bound KRAS wild-type protein; read-out: KRAS KD
# pKd is unitless: minus log10 of the molar concentration; print number only

Study these solved cases before continuing.
| SMILES CODE | pKd |
| --- | --- |
| CCC[C@H]1C(=O)N[C@@H](CC(C)C)C(=O)N(C2CC2)CC(=O)N(C)[C@H]2C/C=C\CCN(C2=O)[C@@H](Cc2ccc(C)cc2)C(=O)N(C)CC(=O)N[C@@H](CCc2cc(F)c(C(F)(F)F)c(F)c2)C(=O)N2C[C@H](OCC)C[C@H]2C(=O)NC2(CC(C)(C)C2)C(=O)N(C)[C@@H](C2CCCC2)C(=O)N(C)[C@H](C(=O)N(C)C)CC(=O)N1C | 8.47 |
| CCO[C@@H]1C[C@H]2C(=O)NC3(CCC3)C(=O)N(C)[C@@H](C3CCCC3)C(=O)N(C)[C@H](C(=O)N(C)C)CC(=O)N(C)[C@@H](CC)C(=O)N[C@@H]([C@@H](C)CC)C(=O)N(C)CC(=O)N(C)[C@H]3CCCCCN(C3=O)[C@@H](Cc3ccc(C(F)(F)F)cc3)C(=O)N(C)CC(=O)N[C@@H](CCc3cc(Cl)c(C(F)(F)F)c(Cl)c3)C(=O)N2C1 | 8.89 |

For the next question, use this compound.
Query for GDP-bound KRAS wild-type protein (Homo sapiens): what pKd does the record show for "CCO[C@@H]1C[C@H]2C(=O)N(C)C3(CC(C)(C)C3)C(=O)N(C)[C@@H](C3CCCC3)C(=O)N(C)[C@H](C(=O)N(C)C)CC(=O)N(C)[C@H]3CCCCCCc4ccc(cc4)C[C@@H](C(=O)N(C)CC(=O)N[C@@H](CCc4ccc(C(F)(F)F)c(OC)c4)C(=O)N2C1)N1CC/C=C\C[C@@H](C1=O)N(C)C(=O)CN(C)C(=O)[C@H]([C@@H](C)CC)NC3=O" ?
10.48

----------
Listing of entries alongside the reported Kd.
- SUBJECT OF TEST: GDP-bound KRAS wild-type protein (Homo sapiens)
- PROTOCOL NOTES: Binding to KRAS by surface plasmon resonance (SPR), Single Cycle Kinetics
- TEST SETTINGS: SPR, Single Cycle Kinetics, GDP-bound KRAS wild-type protein; read-out: KRAS KD
Write the answer as a number in nM, unit excluded.

| MOLECULE | UNITS LABEL | Kd |
| --- | --- | --- |
| CCO[C@@H]1C[C@H]2C(=O)NC3(CC(C)(C)C3)C(=O)N(C)[C@@H](C(CC)CC)C(=O)N(C)[C@H](C(=O)N3CCCC3)CC(=O)N(C)[C@@H](COC)C(=O)N[C@@H]([C@@H](C)CC)C(=O)N(C)CC(=O)N(C)[C@H]3C/C=C\CCN(C3=O)[C@@H](Cc3ccc(C(F)(F)F)cc3)C(=O)N(C)CC(=O)N[C@@H](CCc3ccc(C(F)(F)F)c(OC)c3)C(=O)N2C1 [PP2159] | nM | 0.33 |

// below: Kd requested for another molecule
Which Kd is listed for CCCOC[C@H]1C(=O)N[C@@H]([C@@H](C)OCC)C(=O)N2CCC[C@H]2C(=O)N(C)[C@H]2C/C=C\CCN(C2=O)[C@@H](Cc2ccc(C)cc2)C(=O)N(C)CC(=O)N[C@@H](CCc2ccc(C(F)(F)F)c(OC)c2)C(=O)N2C[C@@H](C)C[C@H]2C(=O)NC2(CC(C)(C)C2)C(=O)N(C)[C@@H](C2CCCC2)C(=O)N(C)[C@H](C(=O)N(C)CC)CC(=O)N1C [PP2431] ?
2.3

----------
- SUBJECT OF TEST: GDP-bound KRAS wild-type protein (Homo sapiens)
- PROTOCOL NOTES: Binding to KRAS by surface plasmon resonance (SPR), Single Cycle Kinetics
- TEST SETTINGS: SPR Single Cycle Kinetics, GDP-bound KRAS wild-type protein, 1:1 binding model; read-out: KRAS KD
Where a SMILES comes first, the peptide text is derived from it. Bridges are numbered along the chain shown (N, C = ends). [ ]: non-standard residue; d: D form. The star is where a group is joined. hPhe(3-Cl-4-CF3) = N[C@@H](CCc1ccc(C(F)(F)F)c(Cl)c1)C(=O)O; NPrPhe(4-CF3) = CCCN[C@@H](Cc1ccc(C(F)(F)F)cc1)C(=O)O; NMeGly(cPent) = CN[C@H](C(=O)O)C1CCCC1; NMeD = CN[C@@H](CC(=O)O)C(=O)O; NMeL = CN[C@@H](CC(C)C)C(=O)O; Ac6c = NC1(C(=O)O)CCCCC1; Morpholide = C1CN(*)CCO1; NMeA = CN[C@@H](C)C(=O)O; Aze = O=C(O)[C@@H]1CCN1; Sar = CNCC(=O)O
READOUT LABEL: pKd
Field pKd (float): negative decimal logarithm of the concentration in molar.

| COMPOUND | pKd |
| --- | --- |
| CC[C@H](C)[C@@H]1NC(=O)[C@H](C)N(C)C(=O)C[C@@H](C(=O)N(C)C)N(C)C(=O)[C@H](C2CCCC2)N(C)C(=O)C2(CCCC2)NC(=O)[C@@H]2CC(F)(F)CN2C(=O)[C@H](CCc2cc(F)c(C(F)(F)F)c(F)c2)NC(=O)CN(C)C(=O)[C@H](Cc2ccc(C(F)(F)F)cc2)N2CCCCC[C@@H](C2=O)N(C)C(=O)CN(C)C1=O | 9.11 |

Would you kindly share the measured pKd for "CCO[C@@H]1C[C@H]2C(=O)NC3(CCC3)C(=O)N(C)[C@@H](C3CCCC3)C(=O)N(C)[C@H](C(=O)N3CCOCC3)CC(=O)N(C)C(C)(C)C(=O)N[C@@H]([C@@H](C)CC)C(=O)N(C)CC(=O)N(C)[C@H]3CCCCN(C3=O)[C@@H](Cc3ccc(C(F)(F)F)cc3)C(=O)N(C)CC(=O)N[C@@H](CCc3cc(F)c(C(F)(F)F)c(F)c3)C(=O)N2C1" ?
7.60

Field entry: "CCO[C@@H]1C[C@H]2C(=O)NC3(CCC3)C(=O)N(C)[C@@H](C(CC)CC)C(=O)N(C)[C@H](C(=O)N3CCCCC3)CC(=O)N(C)[C@H]3CCC/C=C/c4ccc(cc4)C[C@@H](C(=O)N(C)CC(=O)N[C@@H](CCc4cc(F)c(C(F)(F)F)c(F)c4)C(=O)N2C1)N1CC/C=C\C[C@@H](C1=O)N(C)C(=O)CN(C1CC1)C(=O)[C@H]([C@@H](C)CC)NC3=O"
8.96

Same question, CCCN1C(=O)[C@@H]2CCN2C(=O)[C@H](C)N(C)C(=O)[C@H]([C@@H](C)CC)NC(=O)[C@H](CC(C)C)N(C)C(=O)C[C@@H](C(=O)N2CCOCC2)N(C)C(=O)[C@H](C2CCCC2)N(C)C(=O)C2(CCCCC2)NC(=O)[C@@H]2CCCN2C(=O)[C@H](CCc2ccc(C(F)(F)F)c(Cl)c2)NC(=O)CN(C)C(=O)[C@@H]1Cc1ccc(C(F)(F)F)cc1 [PP0226] ([NMeL]I[NMeA][Aze][NPrPhe(4-CF3)][Sar][hPhe(3-Cl-4-CF3)]P[Ac6c][NMeGly(cPent)][NMeD]-Morpholide; lactam N-11) this time
9.33

One more compound: "CC[C@H](C)[C@@H]1NC(=O)[C@H](C)N(C)C(=O)C[C@@H](C(=O)N(C)C)N(C)C(=O)[C@H](C2CCCC2)N(C)C(=O)C2(CCC2)NC(=O)[C@@H]2CCCN2C(=O)[C@H](CCc2cc(F)c(C(F)(F)F)c(F)c2)NC(=O)CN(C)C(=O)[C@H](Cc2ccc(C(F)(F)F)cc2)N2CCCC[C@@H](C2=O)N(C)C(=O)CN(C)C1=O"
10.70

----------
- SUBJECT OF TEST: GDP-bound KRAS wild-type protein (Homo sapiens, UniProt P01116)
- Sequence (P01116 whole entry): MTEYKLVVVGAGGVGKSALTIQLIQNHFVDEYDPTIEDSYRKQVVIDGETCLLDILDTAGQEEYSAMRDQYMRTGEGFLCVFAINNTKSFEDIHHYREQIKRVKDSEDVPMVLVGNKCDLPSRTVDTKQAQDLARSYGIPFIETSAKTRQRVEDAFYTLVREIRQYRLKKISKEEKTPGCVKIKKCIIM
- PROTOCOL NOTES: Binding to KRAS by surface plasmon resonance (SPR), Single Cycle Kinetics
- TEST SETTINGS: SPR, Single Cycle Kinetics, 1:1 binding model; GDP-bound KRAS wild-type protein; read-out: KRAS KD
READOUT LABEL: Kd (nM)
Report the value in nM with no unit label.

Consider the worked cases shown below.
| MOLECULE | SUBJECT OF TEST | Kd [nM] |
| --- | --- | --- |
| CC[C@H](C)[C@@H]1NC(=O)[C@H](CC2CC2)N(C)C(=O)C[C@@H](C(=O)N(C)CC)N(C)C(=O)[C@H](C2CCCC2)N(C)C(=O)C2(CCC2)NC(=O)[C@@H]2CC(F)(F)CN2C(=O)[C@H](CCc2cc(F)c(C(F)(F)F)c(F)c2)NC(=O)CN(C)C(=O)[C@H](Cc2ccc(C(F)(F)F)cc2)N2CC/C=C\C[C@@H](C2=O)N(C)C(=O)CN(C)C1=O [PP1538] | GDP-bound KRAS wild-type protein (Homo sapiens, UniProt P01116) | 0.086 |
| CCO[C@@H]1C[C@H]2C(=O)NC3(CCC3)C(=O)N(C)[C@@H](C3CCCC3)C(=O)N(C)[C@H](C(=O)N3CCCC3)CC(=O)N(C)[C@@H](CC3CC3)C(=O)N[C@@H]([C@@H](C)CC)C(=O)N(C)CC(=O)N(C)[C@H]3C/C=C\CCN(C3=O)[C@@H](Cc3ccc(C(F)(F)F)cc3)C(=O)N(C)CC(=O)N[C@@H](CCc3cc(F)c(C(F)(F)F)c(F)c3)C(=O)N2C1 [PP1296] | GDP-bound KRAS wild-type protein (Homo sapiens, UniProt P01116) | 0.12 |
| CCO[C@@H]1C[C@H]2C(=O)NC3(CCC3)C(=O)N(C)[C@@H](C3CCCC3)C(=O)N(C)[C@H](C(=O)N3CCOCC3)CC(=O)N(C)[C@@H](CC3CC3)C(=O)N[C@@H]([C@@H](C)CC)C(=O)N(C)CC(=O)N(C)[C@H]3C/C=C\CCN(C3=O)[C@@H](Cc3ccc(F)cc3)C(=O)N(C)CC(=O)N[C@@H](CCc3cc(F)c(C(F)(F)F)c(F)c3)C(=O)N2C1 [PP1496] | GDP-bound KRAS wild-type protein (Homo sapiens, UniProt P01116) | 0.26 |
| CCO[C@@H]1C[C@H]2C(=O)NC3(CCC3)C(=O)N(C)[C@@H](C(CC)CC)C(=O)N(C)[C@H](C(=O)N3CCCC3)CC(=O)N(C)[C@@H](C)C(=O)N[C@@H]([C@@H](C)CC)C(=O)N(C)CC(=O)N(C)[C@H]3C/C=C\CCN(C3=O)[C@@H](CC3CCCCC3)C(=O)N(C)CC(=O)N[C@@H](CCc3cc(F)c(C(F)(F)F)c(F)c3)C(=O)N2C1 [PP1434] | GDP-bound KRAS wild-type protein (Homo sapiens, UniProt P01116) | 0.69 |
| CCO[C@@H]1C[C@H]2C(=O)NC3(CC(C)(C)C3)C(=O)N(C)[C@@H](C3CCCC3)C(=O)N(C)[C@H](C(=O)N(C)C)CC(=O)N(C)[C@@H](CC3CCC3)C(=O)N[C@@H]([C@@H](C)CC)C(=O)N(C)CC(=O)N(C)[C@H]3C/C=C\CCN(C3=O)[C@@H](Cc3ccc(C(F)(F)F)cc3)C(=O)N(C)CC(=O)N[C@@H](CCc3ccc(C(F)(F)F)c(OC)c3)C(=O)N2C1 [PP1564] | GDP-bound KRAS wild-type protein (Homo sapiens, UniProt P01116) | 0.073 |

Please find the next molecule below.
Given the entry CCO[C@@H]1C[C@H]2C(=O)NC3(CCC3)C(=O)N(C)[C@@H](C3CCCC3)C(=O)N(C)[C@H](C(=O)N(C)CCOC)CC(=O)N(C)[C@@H](CC3CC3)C(=O)N[C@@H]([C@@H](C)CC)C(=O)N(C)CC(=O)N(C)[C@H]3C/C=C\CCN(C3=O)[C@@H](Cc3ccc(C(F)(F)F)cc3)C(=O)N(C)CC(=O)N[C@@H](CCc3ccc(Cl)c(Cl)c3)C(=O)N2C1 [PP1329] , report its measured Kd.
0.24
